meta.source: PubChem BioAssay AID1963874

system: 253994-281-T-J1-PDC KRAS-mutant spheroids with HUVEC/MSC, viability; assay: Anticancer human tumor 253994-281-T-J1-PDC patient-derived colorectal carcinoma cell line growth inhibition [KRAS2]; settings: second compound 3.16 µM; first compound 0.316 µM; active compounds read low
I'd appreciate it if you could supply viability, T/C values for the items below.
Give bare numbers, in %.

In the examples that follow, each entry is paired with its recorded viability, T/C.
Molecule	Result units	viability, T/C
COc1cc(Nc2ncc3c(n2)-c2ccc(Cl)cc2C(c2c(F)cccc2OC)=NC3)ccc1C(=O)O + C=CC(=O)N1CCN(c2nc(OCC3CCCN3C)nc3c2CCN(c2cccc4cccc(C)c24)C3)CC1CC#N	%	5.83
CC(C)NCC(C(=O)N1CCN(c2ncnc3c2C(C)CC3O)CC1)c1ccc(Cl)cc1 (stereo not given) + CNCc1ccccc1-c1csc(C(C)Nc2nc(C)nc3cc(OC)c(OC)cc23)c1	%	24
CCNC(=O)CC1N=C(c2ccc(Cl)cc2)c2cc(OC)ccc2-n2c(C)nnc21 (stereo not given) + CNCc1ccccc1-c1csc(C(C)Nc2nc(C)nc3cc(OC)c(OC)cc23)c1	%	42.8
CC1(C)CCC(CN2CCN(c3ccc(C(=O)NS(=O)(=O)c4ccc(NCC5CCOCC5)c([N+](=O)[O-])c4)c(Oc4cnc5[nH]ccc5c4)c3)CC2)=C(c2ccc(Cl)cc2)C1 + CC1OCC2(CCN(c3cnc(Sc4ccnc(N)c4Cl)c(N)n3)CC2)C1N	%	63.7

Alright, here's another molecule for you.
Name the recorded viability, T/C of the item COc1cc2nccc(Oc3ccc(NC(=O)C4(C(=O)Nc5ccc(F)cc5)CC4)cc3)c2cc1OC + COc1cc2nc(C)nc(NC(C)c3cc(N)cc(C(F)(F)F)c3)c2cc1OC1CCOC1 in your answer.
109

---

test system: 253994-281-T-J1-PDC KRAS-mutant spheroids with HUVEC/MSC, viability; assay: Anticancer human tumor 253994-281-T-J1-PDC cell line growth inhibition [KRAS2]; conditions: second compound 10 µM; first compound 0.316 µM; active compounds read low;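 note: spheroids exposed to agents for seven days before readout; percent of DMSO vehicle control viability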
Sorting guide: entries reporting viability, T/C beneath 40% go in the rule met pile, the rest go in the rule not met pile.

For orientation, consider the following solved cases.
Compound	Group
CC1(C)CCC(CN2CCN(c3ccc(C(=O)NS(=O)(=O)c4ccc(NCC5CCOCC5)c([N+](=O)[O-])c4)c(Oc4cnc5[nH]ccc5c4)c3)CC2)=C(c2ccc(Cl)cc2)C1 + COc1cc2nc(C)nc(NC(C)c3cc(N)cc(C(F)(F)F)c3)c2cc1OC1CCOC1	rule not met
CC(=O)OC12COC1CC(O)C1(C)C(=O)C(O)C3=C(C)C(OC(=O)C(O)C(NC(=O)OC(C)(C)C)c4ccccc4)CC(O)(C(OC(=O)c4ccccc4)C21)C3(C)C (stereo unspecified) + CNCc1ccccc1-c1csc(C(C)Nc2nc(C)nc3cc(OC)c(OC)cc23)c1	rule met
CC1(C)CCC(CN2CCN(c3ccc(C(=O)NS(=O)(=O)c4ccc(NCC5CCOCC5)c([N+](=O)[O-])c4)c(Oc4cnc5[nH]ccc5c4)c3)CC2)=C(c2ccc(Cl)cc2)C1 + CNCc1ccccc1-c1csc(C(C)Nc2nc(C)nc3cc(OC)c(OC)cc23)c1	rule met
CCNC(=O)CC1N=C(c2ccc(Cl)cc2)c2cc(OC)ccc2-n2c(C)nnc21 (stereo unspecified) + CNCc1ccccc1-c1csc(C(C)Nc2nc(C)nc3cc(OC)c(OC)cc23)c1	rule met
CCNC(=O)CC1N=C(c2ccc(Cl)cc2)c2cc(OC)ccc2-n2c(C)nnc21 (stereo unspecified) + CC1OCC2(CCN(c3cnc(Sc4ccnc(N)c4Cl)c(N)n3)CC2)C1N	rule not met

A record lists CC1OCC2(CCN(c3cnc(Sc4ccnc(N)c4Cl)c(N)n3)CC2)C1N (stereo unspecified) + C=CC(=O)N1CCN(c2nc(=O)n(-c3c(C)ccnc3C(C)C)c3nc(-c4c(O)cccc4F)c(F)cc23)C(C)C1 . Is its viability, T/C below 40%?
rule not met

A record lists CC1COCCN1c1cc(-c2ccnn2C)c2ccnc(-c3ccn[nH]3)c2n1 (stereo unspecified) + CC1OCC2(CCN(c3cnc(Sc4ccnc(N)c4Cl)c(N)n3)CC2)C1N . Is its viability, T/C below 40%?
rule met

---

test system: 253994-281-T-J1-PDC KRAS-mutant spheroids with HUVEC/MSC, viability; assay: Anticancer human tumor 253994-281-T-J1-PDC cell line growth inhibition [KRAS2]; details: second compound 0.316 µM; first compound 0.001 µM; active compounds read low;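 note: spheroids exposed to agents for seven days before readout; percent of DMSO vehicle control viability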
Quantity: viability, T/C (%)
One number for each entry, in %.

Compound	Observed result
CC(=O)Nc1cccc(-n2c(=O)n(C3CC3)c(=O)c3c(Nc4ccc(I)cc4F)n(C)c(=O)c(C)c32)c1 + C=CC(=O)N1CCN(c2nc(=O)n(-c3c(C)ccnc3C(C)C)c3nc(-c4c(O)cccc4F)c(F)cc23)C(C)C1	54.3
CN(C)C/C=C/C(=O)Nc1cc2c(Nc3ccc(F)c(Cl)c3)ncnc2cc1O[C@H]1CCOC1 + CNCc1ccccc1-c1csc(C(C)Nc2nc(C)nc3cc(OC)c(OC)cc23)c1	78.1
Cn1ncnc1[C@H]1c2n[nH]c(=O)c3cc(F)cc(c23)N[C@@H]1c1ccc(F)cc1 + COc1cc2nc(C)nc(NC(C)c3cc(N)cc(C(F)(F)F)c3)c2cc1OC1CCOC1	84.5

Please look at the items below and tell me viability, T/C for each one, in order.
1. CC(=O)Nc1cccc(-n2c(=O)n(C3CC3)c(=O)c3c(Nc4ccc(I)cc4F)n(C)c(=O)c(C)c32)c1 + C=CC(=O)N1CCN(c2nc(OCC3CCCN3C)nc3c2CCN(c2cccc4cccc(C)c24)C3)CC1CC#N
2. Cn1ncnc1[C@H]1c2n[nH]c(=O)c3cc(F)cc(c23)N[C@@H]1c1ccc(F)cc1 + CC1OCC2(CCN(c3cnc(Sc4ccnc(N)c4Cl)c(N)n3)CC2)C1N

1: 41.4; 2: 83.6

---

I'd appreciate it if you could supply viability, T/C values for the items below.
tested on: 253994-281-T-J1-PDC KRAS-mutant spheroids with HUVEC/MSC, viability; assay: Anticancer human tumor 253994-281-T-J1-PDC cell line growth inhibition [KRAS2]; details: second compound 0.0316 µM; first compound 0.000316 µM; active compounds read low;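 note: spheroids exposed to agents for seven days before readout; percent of DMSO vehicle control viability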
Answers are plain numbers, in %.

In the examples that follow, each entry is paired with its recorded viability, T/C.
Molecule	Tested system	Result units	viability, T/C
CN(C)C/C=C/C(=O)Nc1cc2c(Nc3ccc(F)c(Cl)c3)ncnc2cc1O[C@H]1CCOC1 + C=CC(=O)N1CCN(c2nc(OCC3CCCN3C)nc3c2CCN(c2cccc4cccc(C)c24)C3)CC1CC#N	253994-281-T-J1-PDC KRAS-mutant spheroids with HUVEC/MSC, viability	%	95.7
Cn1ncnc1[C@H]1c2n[nH]c(=O)c3cc(F)cc(c23)N[C@@H]1c1ccc(F)cc1 + C=CC(=O)N1CCN(c2nc(OCC3CCCN3C)nc3c2CCN(c2cccc4cccc(C)c24)C3)CC1CC#N	253994-281-T-J1-PDC KRAS-mutant spheroids with HUVEC/MSC, viability	%	93.7
CC(C)n1nc(-c2ccc3oc(N)nc3c2)c2c(N)ncnc21 + C=CC(=O)N1CCN(c2nc(OCC3CCCN3C)nc3c2CCN(c2cccc4cccc(C)c24)C3)CC1CC#N	253994-281-T-J1-PDC KRAS-mutant spheroids with HUVEC/MSC, viability	%	97.5

Alright, here's another molecule for you.
Name the recorded viability, T/C of the item CC(=O)Nc1cccc(-n2c(=O)n(C3CC3)c(=O)c3c(Nc4ccc(I)cc4F)n(C)c(=O)c(C)c32)c1 + C=CC(=O)N1CCN(c2nc(OCC3CCCN3C)nc3c2CCN(c2cccc4cccc(C)c24)C3)CC1CC#N in your answer.
84.6

---

system: 253994-281-T-J1-PDC KRAS-mutant spheroids with HUVEC/MSC, viability; assay: Anticancer human tumor 253994-281-T-J1-PDC cell line growth inhibition [KRAS2]; conditions: second compound 1 µM; first compound 0.000316 µM; active compounds read low;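 note: spheroids exposed to agents for seven days before readout; percent of DMSO vehicle control viability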
Sorting guide: entries reporting viability, T/C beneath 90% go in the criterion met pile, the rest go in the criterion not met pile.

For orientation, consider the following solved cases.
Molecule	Group
Cn1ncnc1[C@H]1c2n[nH]c(=O)c3cc(F)cc(c23)N[C@@H]1c1ccc(F)cc1 + CC1OCC2(CCN(c3cnc(Sc4ccnc(N)c4Cl)c(N)n3)CC2)C1N	criterion met
CN(C)C/C=C/C(=O)Nc1cc2c(Nc3ccc(F)c(Cl)c3)ncnc2cc1O[C@H]1CCOC1 + CC1OCC2(CCN(c3cnc(Sc4ccnc(N)c4Cl)c(N)n3)CC2)C1N	criterion met
CC(=O)Nc1cccc(-n2c(=O)n(C3CC3)c(=O)c3c(Nc4ccc(I)cc4F)n(C)c(=O)c(C)c32)c1 + CC1OCC2(CCN(c3cnc(Sc4ccnc(N)c4Cl)c(N)n3)CC2)C1N	criterion met

A record lists CN(C)C/C=C/C(=O)Nc1cc2c(Nc3ccc(F)c(Cl)c3)ncnc2cc1O[C@H]1CCOC1 + C=CC(=O)N1CCN(c2nc(OCC3CCCN3C)nc3c2CCN(c2cccc4cccc(C)c24)C3)CC1CC#N . Is its viability, T/C below 90%?
criterion not met

A record lists CC(=O)Nc1cccc(-n2c(=O)n(C3CC3)c(=O)c3c(Nc4ccc(I)cc4F)n(C)c(=O)c(C)c32)c1 + COc1cc2nc(C)nc(NC(C)c3cc(N)cc(C(F)(F)F)c3)c2cc1OC1CCOC1 . Is its viability, T/C below 90%?
criterion met

A record lists CN(C)C/C=C/C(=O)Nc1cc2c(Nc3ccc(F)c(Cl)c3)ncnc2cc1O[C@H]1CCOC1 + C=CC(=O)N1CCN(c2nc(=O)n(-c3c(C)ccnc3C(C)C)c3nc(-c4c(O)cccc4F)c(F)cc23)C(C)C1 . Is its viability, T/C below 90%?
criterion met

A record lists CN(C)C/C=C/C(=O)Nc1cc2c(Nc3ccc(F)c(Cl)c3)ncnc2cc1O[C@H]1CCOC1 + CNCc1ccccc1-c1csc(C(C)Nc2nc(C)nc3cc(OC)c(OC)cc23)c1 . Is its viability, T/C below 90%?
criterion met

A record lists Cn1ncnc1[C@H]1c2n[nH]c(=O)c3cc(F)cc(c23)N[C@@H]1c1ccc(F)cc1 + CNCc1ccccc1-c1csc(C(C)Nc2nc(C)nc3cc(OC)c(OC)cc23)c1 . Is its viability, T/C below 90%?
criterion not met

A record lists Cn1ncnc1[C@H]1c2n[nH]c(=O)c3cc(F)cc(c23)N[C@@H]1c1ccc(F)cc1 + C=CC(=O)N1CCN(c2nc(OCC3CCCN3C)nc3c2CCN(c2cccc4cccc(C)c24)C3)CC1CC#N . Is its viability, T/C below 90%?
criterion not met

A record lists CC(C)n1nc(-c2ccc3oc(N)nc3c2)c2c(N)ncnc21 + CNCc1ccccc1-c1csc(C(C)Nc2nc(C)nc3cc(OC)c(OC)cc23)c1 . Is its viability, T/C below 90%?
criterion not met
